Tested on: Rattus norvegicus
protocol.details: Weight of rat body tested after intramuscular administration of 18 ug/kg of compound when compared to vehicle
Type: functional
Hi there, I'd appreciate the recorded Weight for every entry that follows.
Answers are plain numbers, in g.

Reference set (3 entries):
CC(C)C[C@H](NC(=O)[C@H](Cc1ccccc1)NC(=O)CNC(=O)CNC(=O)[C@@H](N)Cc1ccc(O)cc1)C(=O)O = 33.29
C[C@]12C=CC(=O)C=C1CC[C@@H]1[C@@H]2C(=O)C[C@@]2(C)[C@H]1CC[C@]2(O)C(=O)CO = 31.89
CC(C)C[C@H](NC(=O)[C@H](Cc1ccccc1)NC(=O)CNC(=O)CNC(=O)[C@@H](N)Cc1ccc(O)cc1)C(N)=O [[LEU5]ENKEPHALIN] = 34.16

Could you now consider this next compound?
Exam item: Record lookup: for Rattus norvegicus, what Weight belongs to C[C@]12CC[C@@H]3c4ccc(O)cc4CCC3[C@@H]1CCC2=O (single isomer, unassigned) ?
Marked response: 33.62

Reference source: ChEMBL document CHEMBL1144960
